Origin of values: ChEMBL document CHEMBL6177938

tested on: HCT-116; test: Cytotoxicity against human HCT-116 cells assessed as reduction in cell growth incubated for 72 hrs by MTT assay; assay type: functional, cell-based; settings: HCT-116, 72 h
Measurement Label: pIC50
The value called pIC50 is obtained by taking minus log10 of the concentration in mol/L.

Entry CCC(=O)OCC(=O)[C@@]1(C)CC[C@H]2C(=C[C@@H]3OC(=O)[C@@]4(C)[C@@H]3[C@]23CC[C@]4(O)OC3)C1 : reported pIC50 = ?
5.44

* * *

Biological target: Cytochrome P450 1A1 (Homo sapiens, UniProt P04798)
Sequence (P04798 whole entry): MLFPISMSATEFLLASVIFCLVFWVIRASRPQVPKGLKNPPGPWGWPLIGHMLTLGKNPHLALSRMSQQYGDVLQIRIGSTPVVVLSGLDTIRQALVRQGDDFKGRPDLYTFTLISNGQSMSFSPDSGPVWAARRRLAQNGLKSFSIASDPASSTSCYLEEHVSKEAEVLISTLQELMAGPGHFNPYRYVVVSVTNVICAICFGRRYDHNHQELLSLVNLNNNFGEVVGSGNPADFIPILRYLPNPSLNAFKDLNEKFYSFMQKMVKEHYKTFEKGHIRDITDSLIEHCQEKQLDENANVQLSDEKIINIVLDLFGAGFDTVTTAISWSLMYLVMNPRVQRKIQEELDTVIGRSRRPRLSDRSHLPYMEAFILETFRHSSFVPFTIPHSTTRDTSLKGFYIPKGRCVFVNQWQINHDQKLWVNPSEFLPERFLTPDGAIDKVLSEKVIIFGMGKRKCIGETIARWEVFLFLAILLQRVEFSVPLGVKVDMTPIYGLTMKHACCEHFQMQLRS
Test: Inhibition of CYP1A1 (unknown origin) expressed in HEK293 cells
Measurement Label: pIC50
The value called pIC50 is obtained by taking minus log10 of the concentration in mol/L.

Entry COc1c2occc2c(OC)c2c(=O)cc(-c3ccc(F)c(Br)c3)oc12 : reported pIC50 = ?
6.85

* * *

test system: KYSE-270; assay: Cytotoxicity against human KYSE-270 cells assessed as reduction in cell viability incubated for 72 hrs by MTS assay; format: functional, cell-based; settings: KYSE-270, 72 h
Measurement Label: IC50 (nM)
Numbers only; they are read as nM.

Entry CCCCCCCCCCCC(=O)O[C@H]1C(C)=C[C@]23C(=O)[C@@H](C=C(CO)[C@@H](O)[C@]12O)[C@H]1[C@@H](C[C@H]3C)C1(C)C : reported IC50 = ?
1880
